MEASUREMENT_TYPE: melting point

| INPUT_SMILES | melting point |
| --- | --- |
| Cc1cc(Nc2nccc(-c3sc(N)nc3C)n2)ccc1N1CCCCC1 | 221 to 223 °C |

The following compounds each have a reported value; give each one's melting point.
1. CNc1nc(C)c(-c2ccnc(Nc3cccc(S(=O)(=O)NCCOC)c3)n2)s1
2. CCc1cc(-c2nc(C)c(-c3ccnc(Nc4ccc(S(=O)(=O)NCCO)cc4)n3)s2)ccn1
3. Cc1nc(Nc2ccccc2)sc1-c1ccnc(Nc2ccc(N3CCN(Cc4ccccc4)CC3)cc2)n1
4. Cc1nc(C)c(-c2ccnc(Nc3cccc(CN)c3)n2)s1
5. Cc1nc(N(C)c2cc(Cl)cc(Cl)c2)sc1-c1ccnc(Nc2ccc(N3CCOCC3)c(Cl)c2)n1

205 to 206 °C
233 to 234 °C
227 to 229 °C
183 to 184 °C
224 to 225 °C

The following compounds each have a reported value; give each one's melting point.
1. Cc1nc(NCc2ccccc2)sc1-c1ccnc(Nc2ccc(N3CCOCC3)cc2)n1
2. CC(=O)N1CCN(c2ccc(Nc3nccc(-c4sc(Nc5ccccc5)nc4C)n3)cc2)CC1

1. 180 to 183 °C
2. 245 to 246 °C

====

Target: CDK1-cyclin B (Homo sapiens)
Sequence (P06493 whole entry): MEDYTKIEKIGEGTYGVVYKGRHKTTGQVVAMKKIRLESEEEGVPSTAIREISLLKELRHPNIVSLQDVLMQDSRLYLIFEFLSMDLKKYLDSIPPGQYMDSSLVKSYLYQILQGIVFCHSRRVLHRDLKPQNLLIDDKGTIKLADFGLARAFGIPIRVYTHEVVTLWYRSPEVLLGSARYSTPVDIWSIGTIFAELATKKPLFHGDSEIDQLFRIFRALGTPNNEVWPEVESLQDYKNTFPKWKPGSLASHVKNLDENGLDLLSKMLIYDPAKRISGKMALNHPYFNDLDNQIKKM
Sequence (P14635 whole entry partner): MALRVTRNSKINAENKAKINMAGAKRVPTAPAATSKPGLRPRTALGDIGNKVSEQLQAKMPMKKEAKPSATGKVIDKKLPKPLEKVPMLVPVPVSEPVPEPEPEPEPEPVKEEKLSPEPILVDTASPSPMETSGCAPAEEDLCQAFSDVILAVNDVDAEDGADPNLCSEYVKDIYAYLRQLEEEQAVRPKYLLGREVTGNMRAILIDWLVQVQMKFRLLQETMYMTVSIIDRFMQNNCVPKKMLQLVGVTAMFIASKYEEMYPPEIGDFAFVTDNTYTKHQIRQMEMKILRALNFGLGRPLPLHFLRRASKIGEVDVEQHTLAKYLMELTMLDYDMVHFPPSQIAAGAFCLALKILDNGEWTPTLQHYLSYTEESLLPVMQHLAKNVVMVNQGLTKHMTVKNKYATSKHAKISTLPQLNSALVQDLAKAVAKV
Assay: Kinase assay (radioactive phosphate incorporation), CDK1-cyclin B
Assay type: biochemical
Conditions: read-out: Kinase Inhibition pIC50 CDK1-cyclin B (converted)
MEASUREMENT_TYPE: IC50 (nM)
Answers are plain numbers, in nM.

| INPUT_SMILES | TESTED_ON | UNIT_SPEC | IC50 |
| --- | --- | --- | --- |
| CNc1nc(C)c(-c2ccnc(Nc3cccc(S(N)(=O)=O)c3)n2)s1 | CDK1-cyclin B (Homo sapiens) | nM | 200 |
| Cc1nc(N)sc1-c1ccnc(Nc2ccc(S(=O)(=O)NCCO)cc2)n1 | CDK1-cyclin B (Homo sapiens) | nM | 20 |
| CCNc1nc(C)c(-c2ccnc(Nc3ccc(N4CCN(Cc5ccccc5)CC4)cc3)n2)s1 | CDK1-cyclin B (Homo sapiens) | nM | 6310 |
| Cc1nc(N)sc1-c1ccnc(Nc2cccc(CNS(C)(=O)=O)c2)n1 | CDK1-cyclin B (Homo sapiens) | nM | 1000 |
| CCNS(=O)(=O)c1cccc(Nc2nccc(-c3sc(NC)nc3C)n2)c1 | CDK1-cyclin B (Homo sapiens) | nM | 501 |
| CNc1nc(C)c(-c2ccnc(Nc3cccc(S(=O)(=O)NC(C)=O)c3)n2)s1 | CDK1-cyclin B (Homo sapiens) | nM | 6310 |
| CNc1nc(C)c(-c2ccnc(Nc3ccc(S(=O)(=O)NCCO)cc3)n2)s1 | CDK1-cyclin B (Homo sapiens) | nM | 50.1 |
| Cc1nc(C)c(-c2ccnc(Nc3ccc(S(=O)(=O)NCCO)cc3)n2)s1 | CDK1-cyclin B (Homo sapiens) | nM | 10 |

# input for lookup
Can you look up the measured IC50 of CNS(=O)(=O)c1cccc(Nc2nccc(-c3sc(N)nc3C)n2)c1 for me?
1260

====

Target: CDK2-cyclin A (Homo sapiens, UniProt P24941)
Experiment: Kinase assay (radioactive phosphate incorporation), CDK2-cyclin A
Format: biochemical
Conditions: read-out: Kinase Inhibition pIC50 CDK2-cyclin A (converted)
Protocol: Kinase assays. The compounds of the invention above were investigated for their ability to inhibit the enzymatic activity of various protein kinases (Table 2). This was achieved by measurement of incorporation of radioactive phosphate from ATP into appropriate polypeptide substrates. […] After washing 3 times with 75 mM aq orthophosphoric acid, plates were dried, scintillant added and incorporated radioactivity measured in a scintillation counter (TopCount, Packard Instruments, Pangbourne, Berks, UK). […]
MEASUREMENT_TYPE: log10 IC50 (log10 of the value in nM)
Please note: log10 values; quantity IC50; unit nM.

| INPUT_SMILES | log10 IC50 |
| --- | --- |
| CCNS(=O)(=O)c1cccc(Nc2nccc(-c3sc(NC)nc3C)n2)c1 | 3.10 |
| CNc1nc(C)c(-c2ccnc(Nc3ccc(S(=O)(=O)NCCOC)cc3)n2)s1 | 1.20 |
| CCNc1nc(C)c(-c2ccnc(Nc3ccc(N4CCNCC4)cc3)n2)s1 | 2.70 |

The following compounds each have a reported value; give each one's log10 IC50.
1. CNS(=O)(=O)c1cccc(Nc2nccc(-c3sc(N)nc3C)n2)c1
2. COCCNS(=O)(=O)c1cccc(Nc2nccc(-c3sc(C)nc3C)n2)c1
3. Cc1nc(N)sc1-c1ccnc(Nc2ccc(S(=O)(=O)NCc3ccccc3)cc2)n1
4. Cc1nc(C)c(-c2ccnc(Nc3ccc(S(=O)(=O)NCCO)cc3)n2)s1
5. COCCNS(=O)(=O)c1cccc(Nc2nccc(-c3sc(N)nc3C)n2)c1

1. 3.00
2. 3.60
3. 1.60
4. 1.30
5. 3.30

Identify the measured log10 IC50 of CCNc1nc(C)c(-c2ccnc(Nc3cccc(S(=O)(=O)NCCOC)c3)n2)s1 for CDK2-cyclin A (Homo sapiens, UniProt P24941).
3.30

====

Molecular target: UniProt P36888
Sequence (P36888 27-993, species assumed): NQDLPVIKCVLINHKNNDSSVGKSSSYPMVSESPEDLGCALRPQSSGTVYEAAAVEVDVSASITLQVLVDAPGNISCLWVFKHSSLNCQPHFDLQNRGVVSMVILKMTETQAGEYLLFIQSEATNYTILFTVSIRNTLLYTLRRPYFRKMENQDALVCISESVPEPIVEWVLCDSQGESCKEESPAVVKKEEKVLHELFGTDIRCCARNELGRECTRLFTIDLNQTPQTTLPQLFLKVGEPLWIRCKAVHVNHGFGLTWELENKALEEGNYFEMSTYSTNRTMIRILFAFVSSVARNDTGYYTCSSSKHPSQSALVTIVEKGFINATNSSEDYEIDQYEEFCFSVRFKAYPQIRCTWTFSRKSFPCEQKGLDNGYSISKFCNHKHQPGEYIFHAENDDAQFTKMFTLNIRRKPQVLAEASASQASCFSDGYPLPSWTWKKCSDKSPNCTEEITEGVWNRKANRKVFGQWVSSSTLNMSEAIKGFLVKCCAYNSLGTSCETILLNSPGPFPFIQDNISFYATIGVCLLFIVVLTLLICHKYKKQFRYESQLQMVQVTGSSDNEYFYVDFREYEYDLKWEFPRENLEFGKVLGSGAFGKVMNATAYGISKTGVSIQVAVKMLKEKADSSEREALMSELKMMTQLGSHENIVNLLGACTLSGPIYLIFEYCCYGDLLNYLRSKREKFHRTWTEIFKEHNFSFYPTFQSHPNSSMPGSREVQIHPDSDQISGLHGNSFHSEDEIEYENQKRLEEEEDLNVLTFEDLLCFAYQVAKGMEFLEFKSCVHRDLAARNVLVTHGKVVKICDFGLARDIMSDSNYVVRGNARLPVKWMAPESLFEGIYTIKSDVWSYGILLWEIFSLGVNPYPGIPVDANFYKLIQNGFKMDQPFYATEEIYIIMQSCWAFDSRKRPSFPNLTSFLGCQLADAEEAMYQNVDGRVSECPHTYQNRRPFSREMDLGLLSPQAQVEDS
Assay: Kinase assay (radioactive phosphate incorporation), Flt3
Format: biochemical
Details: pIC50 is -log(IC50, M), read-out: Kinase Inhibition pIC50 Flt3 (converted)
MEASUREMENT_TYPE: IC50 (nM)
One number for each entry, in nM.

The following compounds each have a reported value; give each one's IC50.
1. CCNc1nc(C)c(-c2ccnc(Nc3ccc(S(=O)(=O)NCCO)cc3)n2)s1 [Compound 65]
2. CC(=O)NCc1ccc(Nc2nccc(-c3sc(C)nc3C)n2)cc1 [Compound 15]
3. CCNc1nc(C)c(-c2ccnc(Nc3cccc(S(=O)(=O)NCCOC)c3)n2)s1 [Compound 53]
4. Cc1nc(C)c(-c2ccnc(Nc3ccc(N4CC(C)OC(C)C4)cc3)n2)s1 (stereo not shown) [Compound 121]

200
501
200
398

The following compounds each have a reported value; give each one's IC50.
1. CNc1nc(C)c(-c2ccnc(Nc3cc(OC)cc(OC)c3)n2)s1 [Compound 170]
2. COCCNc1nc(C)c(-c2ccnc(Nc3cccc(S(N)(=O)=O)c3)n2)s1 [Compound 83]
3. CNc1nc(C)c(-c2ccnc(Nc3ccc(S(=O)(=O)NCCO)cc3)n2)s1 [Compound 67]
4. CCNc1nc(C)c(-c2ccnc(Nc3ccc(N4CCN(Cc5ccccc5)CC4)cc3)n2)s1 [Compound 60]
5. CC(=O)N1CCN(c2ccc(Nc3nccc(-c4sc(N(C)c5cccnc5)nc4C)n3)cc2)CC1 [Compound 164]
6. Cc1nc(C)c(-c2ccnc(Nc3ccc(CN4CCOCC4)cc3)n2)s1 [Compound 174]
7. COc1cc(Nc2nccc(-c3sc(N)nc3C)n2)cc(OC)c1OC [Compound 168]

10
39.8
316
39.8
25.1
158
5.01

====

Molecular target: CDK9/cyclin T1 (Homo sapiens, UniProt P50750)
Sequence (P50750 whole entry): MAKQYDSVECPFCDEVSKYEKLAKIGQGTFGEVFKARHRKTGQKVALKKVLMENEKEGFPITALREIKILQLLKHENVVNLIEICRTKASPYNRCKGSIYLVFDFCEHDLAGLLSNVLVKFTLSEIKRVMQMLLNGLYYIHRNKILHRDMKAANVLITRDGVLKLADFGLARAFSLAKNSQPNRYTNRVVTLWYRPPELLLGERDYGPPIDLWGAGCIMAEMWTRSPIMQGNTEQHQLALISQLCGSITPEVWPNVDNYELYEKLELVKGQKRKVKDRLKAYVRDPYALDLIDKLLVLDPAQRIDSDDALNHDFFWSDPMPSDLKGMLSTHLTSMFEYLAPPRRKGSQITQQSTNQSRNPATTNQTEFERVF
Sequence (O60563 whole entry partner): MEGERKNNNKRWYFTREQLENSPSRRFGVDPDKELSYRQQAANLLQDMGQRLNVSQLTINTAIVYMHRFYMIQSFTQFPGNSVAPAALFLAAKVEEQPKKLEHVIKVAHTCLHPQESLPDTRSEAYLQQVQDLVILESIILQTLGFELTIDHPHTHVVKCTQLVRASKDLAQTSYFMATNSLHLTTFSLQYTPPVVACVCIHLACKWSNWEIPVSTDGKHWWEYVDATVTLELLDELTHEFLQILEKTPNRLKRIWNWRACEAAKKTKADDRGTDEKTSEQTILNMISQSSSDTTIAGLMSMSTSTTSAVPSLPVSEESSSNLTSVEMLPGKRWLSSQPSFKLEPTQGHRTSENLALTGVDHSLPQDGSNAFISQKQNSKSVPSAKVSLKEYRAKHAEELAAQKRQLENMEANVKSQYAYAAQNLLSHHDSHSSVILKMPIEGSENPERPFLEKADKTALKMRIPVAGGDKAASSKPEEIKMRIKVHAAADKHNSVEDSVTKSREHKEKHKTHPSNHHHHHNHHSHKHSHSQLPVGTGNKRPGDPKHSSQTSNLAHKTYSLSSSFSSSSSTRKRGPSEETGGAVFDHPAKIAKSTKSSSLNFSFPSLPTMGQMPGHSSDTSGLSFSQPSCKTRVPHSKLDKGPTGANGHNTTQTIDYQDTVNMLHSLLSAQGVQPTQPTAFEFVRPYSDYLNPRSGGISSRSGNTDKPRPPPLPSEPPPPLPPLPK
Assay: CDK 9 assay (CTD peptide substrate)
Assay type: biochemical
Details: read-out: Kinase Inhibition pIC50 CDK9-cyclin T1 (converted)
API: label(entry) gives t if the entry's IC50 is strictly smaller than 200 nM; on equality or larger values it gives f.

Does the reported IC50 of the following molecule sit strictly below 200 nM? CCNc1nc(C)c(-c2ccnc(Nc3ccc(N4CCN(Cc5ccccc5)CC4)cc3)n2)s1
f

Does the reported IC50 of the following molecule sit strictly below 200 nM? CCNc1nc(C)c(-c2ccnc(Nc3cc(OC)c(OC)c(OC)c3)n2)s1
t

Does the reported IC50 of the following molecule sit strictly below 200 nM? CNc1nc(C)c(-c2ccnc(Nc3cccc(S(=O)(=O)NC)c3)n2)s1
t

Does the reported IC50 of the following molecule sit strictly below 200 nM? CCNc1nc(C)c(-c2ccnc(Nc3cccc(S(=O)(=O)NCCO)c3)n2)s1
t

Does the reported IC50 of the following molecule sit strictly below 200 nM? Cc1nc(C)c(-c2ccnc(Nc3cccc(S(C)(=O)=O)c3)n2)s1
f

Does the reported IC50 of the following molecule sit strictly below 200 nM? Cc1nc(N)sc1-c1ccnc(Nc2ccc(N3CCSCC3)cc2)n1
f

Does the reported IC50 of the following molecule sit strictly below 200 nM? CCNc1nc(C)c(-c2ccnc(Nc3ccc(N4CCSCC4)cc3)n2)s1
f

Does the reported IC50 of the following molecule sit strictly below 200 nM? Cc1nc(N)sc1-c1ccnc(Nc2cccc(CNS(=O)(=O)C(F)(F)F)c2)n1
t

====

MEASUREMENT_TYPE: melting point

The following molecules each have a reported value; give each one's melting point.
1. Cc1nc(-c2cccnc2)sc1-c1ccnc(Nc2cc(Cl)c(N3CCOCC3)c(Cl)c2)n1
2. COCCNS(=O)(=O)c1ccc(Nc2nccc(-c3sc(-c4cccnc4)nc3C)n2)cc1
3. Cc1nc(-c2nc(C)c(-c3ccnc(Nc4cc(Cl)c(N5CCOCC5)c(Cl)c4)n3)s2)cs1
4. COc1cc(Nc2nccc(-c3sc(-c4cccnc4)nc3C)n2)cc(OC)c1

["276 to 278 °C", "252 to 254 °C", "> 300 °C", "229 to 230 °C"]
